Values compiled from paper doi:10.1101/718155.

- experimental target: T1, S100B (human, UniProt P04271 1-92)
- T1 chain: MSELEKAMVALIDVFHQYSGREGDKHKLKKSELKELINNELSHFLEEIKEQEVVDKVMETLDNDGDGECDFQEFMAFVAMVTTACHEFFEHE
- procedure details: FP; direct
Measured Kd, listed per entry.
Number in µM, nothing else.

*Q* Consider the binder shown here: RRLLFYKYVYKR [NCX1 (254-265) peptide] What is its recorded Kd?
*A* 7.7

*Q* Similarly, VLQTWLQDLLRRGLVRAAQ [TRPM4 (129-147) peptide] ?
*A* 16

*Q* Similarly, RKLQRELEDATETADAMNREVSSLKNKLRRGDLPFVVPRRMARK [NMIIA (1894-1937) peptide] ?
*A* 4.7

*Q* Similarly, TRTKIDWNKILS [CapZ (265-276) peptide] ?
*A* 2.3

*Q* Similarly, NQVRPKLPLLKILHAAGAQ [MDM4 (25-43) peptide] ?
*A* 0.2
